Target: T1, Pit-1ΔN (UniProt P28069 105-291)
T1 sequence: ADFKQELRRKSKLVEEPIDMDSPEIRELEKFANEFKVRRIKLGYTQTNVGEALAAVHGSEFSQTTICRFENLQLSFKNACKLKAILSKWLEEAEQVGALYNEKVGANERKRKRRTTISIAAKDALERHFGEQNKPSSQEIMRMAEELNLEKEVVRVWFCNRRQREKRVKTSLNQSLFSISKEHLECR
Test: fluorescence anisotropy
pKd: −log10 of the molar value.
property.measured: pKd

binder | property.measured | measured
f8x (dsDNA) DNA 1: CACCCATTCATTCATTCATTCATTCATTCATTCATTCAG DNA 2: CTGAATGAATGAATGAATGAATGAATGAATGAATGGGTG | pKd | 7.57
